Assay Info: qHTS for differential inhibitors of proliferation of Plasmodium falciparum line D10 (AID 1877);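 also: parasites grown with compound for 72 h before DNA staining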; also: potency is read from the fitted curve at half-maximal effect
Condition Notes: series mostly up to 28.7 µM
Records with an inconclusive call do not appear. Activity calls are given as the source filed them. Calls follow the shape of the dose curve; as a rule, active = well fitted curve in the direction sought with a large enough effect; inconclusive = small, poorly fitted or top-dose-only effect, or another doubt; inactive = no such curve, though single readings can be large or run the other way.

# Molecule, Potency
measured = [
    ("C#CCN(C)CCCOc1ccc(Cl)cc1Cl", "inactive"),
    ("CC1=C(C)C(=O)C(CCCCC#CCCCC#CCO)=C(C)C1=O", "14.1 µM (active)"),
    ("CN=C(NC#N)NCCSCc1nc[nH]c1C", "inactive"),
    ("O=C(O)CN(CCOCCOCCN(CC(=O)O)CC(=O)O)CC(=O)O", "inactive"),
    ("CCN1CCc2nc(N)oc2CC1", "inactive"),
    ("NC/C=C/C(=O)O", "inactive"),
    ("CC(C)COCC(CN(Cc1ccccc1)c1ccccc1)N1CCCC1 (configuration not stated)", "inactive"),
    ("COC(=O)[C@H]1[C@H]2C[C@@H]3c4[nH]c5cc(OC)ccc5c4CCN3C[C@H]2C[C@@H](OC(=O)c2cc(OC)c(OC)c(OC)c2)[C@@H]1OC", "2.82 µM (active)"),
    ("CCCCNC(=O)NS(=O)(=O)c1ccc(C)cc1", "inactive"),
    ("CCCN1C[C@H](CSC)C[C@@H]2c3cccc4[nH]cc(c34)C[C@H]21", "11.2 µM (active)"),
    ("CSc1ccc(C(=O)c2[nH]c(=O)[nH]c2C)cc1", "inactive"),
    ("COc1ccc([C@@H]2Sc3ccccc3N(CCN(C)C)C(=O)[C@@H]2OC(C)=O)cc1", "inactive"),
    ("COCCc1ccc(OCC(O)CNC(C)C)cc1 (configuration not stated)", "inactive"),
    ("Cc1ccc(S(=O)(=O)NC(=O)NN2CCCCCC2)cc1", "inactive"),
    ("CC(C(=O)O)c1ccc(CC2CCCC2=O)cc1 (configuration not stated)", "inactive"),
    ("C[C@]12CCC(=O)C=C1CC[C@@H]1[C@@H]2C(=O)C[C@@]2(C)[C@H]1CC[C@]2(O)C(=O)CO", "inactive"),
    ("CC(C)NCC(O)c1cc(O)cc(O)c1 (configuration not stated)", "inactive"),
]

====

Target Desc: Chromobox protein homolog 1 (Homo sapiens)
Assay Info: qHTS Validation Assay for Inhibitors of HP1-beta Chromodomain Interactions with Methylated Histone Tails (AID 488953); also: nearly all actives have a fitted effect of over 50% in size
Condition Notes: HP1-beta chromodomain / methylated histone peptide binding assay; series mostly up to 114 µM
Records with an inconclusive call do not appear. Calls of active or inactive are those of the source. The call rests on the fitted dose curve; in most records, active means well fitted inhibition curve with a large enough effect; inconclusive means small, poorly fitted or top-dose-only effect; inactive means no such curve, though single readings can be large or run the other way.
Outcomes: active, inactive

# Molecule, Discrete Label
data = [
    ("NC(=O)c1ncn([C@@H]2O[C@H](CO)[C@@H](O)[C@H]2O)c1O", "inactive"),
    ("OC(CCN1CCCCC1)(c1ccccc1)C1CCCCC1 (stereo not given)", "inactive"),
    ("CN1CCN(C2=Nc3ccccc3Oc3ccc(Cl)cc32)CC1", "inactive"),
    ("CCN1CCc2nc(N)oc2CC1", "inactive"),
    ("Cc1nc2sccn2c(=O)c1CCN1CCC(=C(c2ccc(F)cc2)c2ccc(F)cc2)CC1", "active"),
    ("CN(C)CCOC(=O)COc1ccc(Cl)cc1", "inactive"),
    ("C[n+]1cc2c3c(ccc2c2ccc4cc5c(cc4c21)OCO5)OCO3", "inactive"),
    ("CNCCC(Oc1ccccc1OC)c1ccccc1 (stereo not given)", "inactive"),
    ("CN(C(=O)CCCOc1ccc2[nH]c(=O)ccc2c1)C1CCCCC1", "inactive"),
    ("CN(C)CC/C=C1\\c2ccccc2COc2ccccc21", "inactive"),
    ("CSc1ccc(C(=O)c2[nH]c(=O)[nH]c2C)cc1", "inactive"),
    ("COc1ccc([C@@H]2Sc3ccccc3N(CCN(C)C)C(=O)[C@@H]2OC(C)=O)cc1", "inactive"),
    ("c1cnc(N2CCN(Cc3ccc4c(c3)OCO4)CC2)nc1", "inactive"),
    ("CCCN(CCC)CCc1cccc2c1CC(=O)N2", "inactive"),
    ("CCN1CCC[C@H]1CNC(=O)c1c(O)c(Cl)cc(Cl)c1OC", "inactive"),
]

Where do these numbers come from? They come from PubChem BioAssay (NCATS).
